Listing: melting point of selected molecules

Nc1nc2cc(S(=O)(=O)N3CCCC3)ccc2o1    240 to 242 °C
O=C1NCCCc2cc(O)ccc21    219 to 221 °C
c1ccc2sc(C3CCCCN3)nc2c1 (stereo not drawn)    200 to 202 °C
CC(=O)c1cc([N+](=O)[O-])ccc1F    48 to 50 °C
O=C(O)CCOc1ccc(Cl)cc1[N+](=O)[O-]    127 to 129 °C

Query: Bench note: what melting point did `Cc1nc(CCCC(=O)O)cs1` show?
Response: 66 to 68 °C

Query: Bench note: what melting point did `O=C(CCl)/N=c1\sccn1Cc1ccc(Cl)cc1Cl` show?
Response: 128 to 130 °C

Query: Bench note: what melting point did `Cn1nc(C(=O)O)cc1C1CC1` show?
Response: 196 to 198 °C

Query: Bench note: what melting point did `Cc1cc(S)nc(C(C)C)n1` show?
Response: 160 to 164 °C

Query: Bench note: what melting point did `O=C1C=CC(=O)N1CCc1ccccc1` show?
Response: 109 to 111 °C

Where do the numbers come from? From a melting point compilation (Tetko et al.).
